Test system: NCI-H3122
Assay: relative viability (nuclei count vs DMSO), 5 days (fraction); higher = more cells survive
Conditions: first compound 0.5 µM
Please respond with satisfied when measured relative viability is strictly beneath 0.2, and with not satisfied in all other cases.

Q: is_below(relative viability, 0.2) for COc1cc2nccc(Oc3ccc(NC(=O)Nc4cc(C)on4)c(Cl)c3)c2cc1OC [Tivozanib] + CS(=O)(=O)CCNCc1ccc(-c2ccc3ncnc(Nc4ccc(OCc5cccc(F)c5)c(Cl)c4)c3c2)o1 [Lapatinib] (partner 2 µM) ?
A: not satisfied

Q: is_below(relative viability, 0.2) for Nc1ccn([C@@H]2O[C@H](CO)[C@@H](O)[C@@H]2O)c(=O)n1 [Cytarabine] + Nc1nc2[nH]cc(CCc3ccc(C(=O)N[C@@H](CCC(=O)O)C(=O)O)cc3)c2c(=O)[nH]1 [Pemetrexed] (partner 0.2 µM) ?
A: satisfied

Q: is_below(relative viability, 0.2) for COc1cc2nccc(Oc3ccc(NC(=O)Nc4cc(C)on4)c(Cl)c3)c2cc1OC [Tivozanib] + Cc1cc(Nc2cc(N3CCN(C)CC3)nc(Sc3ccc(NC(=O)C4CC4)cc3)n2)n[nH]1 [Tozasertib] (partner 0.1 µM) ?
A: not satisfied

Q: is_below(relative viability, 0.2) for COc1cc2nccc(Oc3ccc(NC(=O)Nc4cc(C)on4)c(Cl)c3)c2cc1OC [Tivozanib] + CC(=O)c1c(C)c2cnc(Nc3ccc(N4CCNCC4)cn3)nc2n(C2CCCC2)c1=O [Palbociclib] (partner 0.5 µM) ?
A: satisfied

Q: is_below(relative viability, 0.2) for Nc1ccn([C@@H]2O[C@H](CO)[C@@H](O)[C@@H]2O)c(=O)n1 [Cytarabine] + O=C(c1cc(Cc2n[nH]c(=O)c3ccccc23)ccc1F)N1CCN(C(=O)C2CC2)CC1 [Olaparib] (partner 8 µM) ?
A: not satisfied

Q: is_below(relative viability, 0.2) for COc1cc2nccc(Oc3ccc(NC(=O)Nc4cc(C)on4)c(Cl)c3)c2cc1OC [Tivozanib] + Nc1ncn([C@H]2C[C@H](O)[C@@H](CO)O2)c(=O)n1 [Decitabine] (partner 2 µM) ?
A: not satisfied

Q: is_below(relative viability, 0.2) for Nc1ccn([C@@H]2O[C@H](CO)[C@@H](O)[C@@H]2O)c(=O)n1 [Cytarabine] + Cc1cc(Nc2cc(N3CCN(C)CC3)nc(Sc3ccc(NC(=O)C4CC4)cc3)n2)n[nH]1 [Tozasertib] (partner 0.1 µM) ?
A: satisfied

Q: is_below(relative viability, 0.2) for COc1cc2nccc(Oc3ccc(NC(=O)Nc4cc(C)on4)c(Cl)c3)c2cc1OC [Tivozanib] + CS(=O)(=O)N1CCN(Cc2cc3nc(-c4cccc5[nH]ncc45)nc(N4CCOCC4)c3s2)CC1 [Pictilisib] (partner 1 µM) ?
A: not satisfied

Q: is_below(relative viability, 0.2) for Nc1ccn([C@@H]2O[C@H](CO)[C@@H](O)[C@@H]2O)c(=O)n1 [Cytarabine] + COc1cccc2cc(-c3nc([C@H]4CC[C@H](C(=O)O)CC4)n4ncnc(N)c34)[nH]c12 [OSI-027] (partner 0.5 µM) ?
A: satisfied

Q: is_below(relative viability, 0.2) for COc1cc2nccc(Oc3ccc(NC(=O)Nc4cc(C)on4)c(Cl)c3)c2cc1OC [Tivozanib] + Nc1nc2[nH]cc(CCc3ccc(C(=O)N[C@@H](CCC(=O)O)C(=O)O)cc3)c2c(=O)[nH]1 [Pemetrexed] (partner 0.2 µM) ?
A: satisfied

Q: is_below(relative viability, 0.2) for COc1cc2nccc(Oc3ccc(NC(=O)Nc4cc(C)on4)c(Cl)c3)c2cc1OC [Tivozanib] + Cc1nc(Nc2ncc(C(=O)Nc3c(C)cccc3Cl)s2)cc(N2CCN(CCO)CC2)n1 [Dasatinib] (partner 0.075 µM) ?
A: not satisfied

Q: is_below(relative viability, 0.2) for Nc1ccn([C@@H]2O[C@H](CO)[C@@H](O)[C@@H]2O)c(=O)n1 [Cytarabine] + Cc1nc(Nc2ncc(C(=O)Nc3c(C)cccc3Cl)s2)cc(N2CCN(CCO)CC2)n1 [Dasatinib] (partner 0.075 µM) ?
A: satisfied
